Please respond with reported Binding Similarity score for every item in the list.
Target: T1, wildtype feline IL-31 protein (Feline_IL31_wildtype) (feline)
T1 construct: Full length feline IL-31 with C-terminal His tag, secreted from ExpiCHO cells; also called fIL-31
T1 chain: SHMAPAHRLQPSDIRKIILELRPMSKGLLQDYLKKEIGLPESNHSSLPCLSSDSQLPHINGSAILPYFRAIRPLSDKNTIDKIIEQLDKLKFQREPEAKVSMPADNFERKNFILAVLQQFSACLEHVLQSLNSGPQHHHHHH
Experiment: Biacore, feline IL-31 chip, mAb 100 nM, share of points within parent mean +/-3 SD
Set-up: key: % of mutant data points within parent mAb mean ±3 SD
Numbers only.

- binder: "A37 (antibody, V domains shown) VH: QVLLVQSGAEVRTPGASVKIFCKASGYSFTSYTIHWLRQAPAQGLEWMGAINPTSGYTENNQRFKDRLTLTADTSTNTAYMELSSLRSADTAMYYCARWGFKYDGEWSFDVWGAGTTVTVSS VL: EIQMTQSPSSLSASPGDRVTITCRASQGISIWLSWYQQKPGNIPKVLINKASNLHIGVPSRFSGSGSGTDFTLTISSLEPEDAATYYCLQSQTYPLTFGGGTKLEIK"
  Binding Similarity score: 46.1
- binder: "A58 (antibody, V domains shown) VH: QVLLVQSGAEVRTPGASVKIFCKASGYSFTSYTIHWLRQAPAQGLEWMGNINPTSGYTENNQRFKDRLTLTADTSTNTAYMELSSLRSADTAMYYCARWGFKYDAEWSFDVWGAGTTVTVSS VL: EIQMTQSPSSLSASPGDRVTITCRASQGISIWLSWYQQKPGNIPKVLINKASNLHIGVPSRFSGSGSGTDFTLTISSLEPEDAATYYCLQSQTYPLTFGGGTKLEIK"
  Binding Similarity score: 16.7

--- query ---
Ask: Please list Binding Similarity score recorded for the binder A64 (antibody, V domains shown) VH: QVLLVQSGAEVRTPGASVKIFCKASGYSFTSYTIHWLRQAPAQGLEWMGNINPTSGYTENNQRFKDRLTLTADTSTNTAYMELSSLRSADTAMYYCARWGFKYDGEWSFAVWGAGTTVTVSS VL: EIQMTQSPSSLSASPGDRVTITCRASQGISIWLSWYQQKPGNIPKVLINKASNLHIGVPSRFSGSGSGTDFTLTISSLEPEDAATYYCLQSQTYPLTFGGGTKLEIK
Result: 2.7
